- System: Bacillus subtilis
- test: Antibacterial activity against Bacillus subtilis after 24 hr by agar plate method
- Format: functional
experimental_readout: log10 of MIC (log10 of the value in µg/mL)
Kindly note that the scale is log10 and the underlying MIC is in µg/mL.

These recorded examples may help you get a feel for the data.
>>> measured_value("Cc1cc(=O)oc2cc(Oc3nc(Nc4ccccc4)nc(N4CCN(c5ccccn5)CC4)n3)ccc12")
1.10
>>> measured_value("O=c1cc(Oc2nc(Nc3ccccc3)nc(N3CCN(c4ccccn4)CC3)n2)c2ccccc2o1")
1.40

Below is a list of compounds. For each, state its recorded log10 of MIC.
1. Cc1cc(=O)oc2cc(Oc3nc(Nc4ccccc4)nc(N4CCOCC4)n3)ccc12
2. Cc1cc(=O)oc2cc(Oc3nc(Nc4ccccc4)nc(N4CCCCC4)n3)ccc12

1. 2.00
2. 2.00

// for each compound in input: emit log10 of MIC
1. O=c1cc(Oc2nc(Nc3ccccc3)nc(N3CCCCC3)n2)c2ccccc2o1
2. Cc1cc(=O)oc2cc(Oc3nc(Nc4ccccc4)nc(N4CCN(C)CC4)n3)ccc12
3. CCN1CCN(c2nc(Nc3ccccc3)nc(Oc3cc(=O)oc4ccccc34)n2)CC1
4. CC(C)N1CCN(c2nc(Nc3ccccc3)nc(Oc3cc(=O)oc4ccccc34)n2)CC1
5. Cc1cc(=O)oc2cc(Oc3nc(Nc4ccccc4)nc(N4CCN(C(C)C)CC4)n3)ccc12

1.70
2.00
1.70
1.70
2.00

Dear colleague, could you please provide log10 of MIC for the compounds listed below?
1. CCN1CCN(c2nc(Nc3ccccc3)nc(Oc3ccc4c(C)cc(=O)oc4c3)n2)CC1
2. O=c1cc(Oc2nc(Nc3ccccc3)nc(N3CCN(c4cccc(Cl)c4Cl)CC3)n2)c2ccccc2o1
3. Cc1cc(=O)oc2cc(Oc3nc(Nc4ccccc4)nc(N4CCN(c5cccc(Cl)c5Cl)CC4)n3)ccc12
4. CC(=O)N1CCN(c2nc(Nc3ccccc3)nc(Oc3cc(=O)oc4ccccc34)n2)CC1
5. CN1CCN(c2nc(Nc3ccccc3)nc(Oc3cc(=O)oc4ccccc34)n2)CC1
6. CC(=O)N1CCN(c2nc(Nc3ccccc3)nc(Oc3ccc4c(C)cc(=O)oc4c3)n2)CC1
7. O=C(O)c1cn(C2CC2)c2cc(N3CCNCC3)c(F)cc2c1=O

1.70
1.10
1.10
2.00
2.00
1.70
0.49

Below is a list of compounds. For each, state its recorded log10 of MIC.
1. O=c1cc(Oc2nc(Nc3ccccc3)nc(N3CCN(c4ncccn4)CC3)n2)c2ccccc2o1
2. O=c1cc(Oc2nc(Nc3ccccc3)nc(N3CCN(c4cccc(Cl)c4)CC3)n2)c2ccccc2o1
3. Cc1cc(=O)oc2cc(Oc3nc(Nc4ccccc4)nc(N4CCN(c5ccccc5)CC4)n3)ccc12

1: 1.10; 2: 1.40; 3: 2.00

---

- Test system: Pseudomonas aeruginosa
- test: Antibacterial activity against Pseudomonas aeruginosa after 24 hr by disk diffusion test
- Type: functional
experimental_readout: inhibition zone (IZ) (mm)
Give bare numbers, in mm.

>>> measured_value("Cc1cc(=O)oc2cc(Oc3nc(Nc4ccccc4)nc(N4CCN(c5ncccn5)CC4)n3)ccc12")
23
>>> measured_value("CC(=O)N1CCN(c2nc(Nc3ccccc3)nc(Oc3cc(=O)oc4ccccc34)n2)CC1")
22

Report inhibition zone (IZ) for each item below.
1. O=c1cc(Oc2nc(Nc3ccccc3)nc(N3CCOCC3)n2)c2ccccc2o1
2. O=c1cc(Oc2nc(Nc3ccccc3)nc(N3CCN(c4cccc(Cl)c4Cl)CC3)n2)c2ccccc2o1
3. O=c1cc(Oc2nc(Nc3ccccc3)nc(N3CCCCC3)n2)c2ccccc2o1

[17, 23, 16]
